The measured values listed here are drawn from patent US20220259289A1.

For each record, write down the corresponding ELISA Fc Control (RLU).
biological target: unrelated Fc-fused recombinant protein; assay: ELISA, negative control Fc protein
Express it in RLU; write the number only.

Name the reported ELISA Fc Control (RLU) value associated with the binder ISOP193BR9P1G6 (designed binder, not shown: small tags and cut ends) LPAPKNLVVSRVTEDSARLSWDDQFEDWFDSFLIQYQESEQVGEAIVLTVPGSERSYDLTGLKPGTEYTVSIYGVHTRDWTAWNASNPLSAIFTT
2640

Again, but for ISOP193ER9P1G9 (designed binder, not shown: small tags and cut ends) LPAPKNLVVSRVTEDSARLSWTAPDAAFDSFDIYYFEHPVGGEAIVLTVPGSERSYDLTGLKPGTEYLVTIYGVKGGNGSSPLSAIFTT
1280

Again, but for ISOP193ER9P1H11 (designed binder, not shown: small tags and cut ends) LPAPKNLVVSRVTEDSARLSWTAPDAAFDSFDIYYFEHPVGGEAIVLTVPGSERSYDLTGLKPGTEYLVAIYGVKGGVFSHPLSAIFTT
1360

Again, but for ISOP193ER9P1D4 (designed binder, not shown: small tags and cut ends) LPAPKNLVVSRVTEDSARLSWTAPDAAFDSFDIYYFEHPVGGEAIVLTVPGSERSYDLTGLKPGTEYLVTIYGVKGGTYSPPLSAIFTT
1120
